Setup Conditions: [M+H]+; instrument: TW; calibrated with polyalanine and drug standards
Result Type: collision cross section (N2) (Å²)
Field format: number, assumed Å², no unit text.

// below: answered compounds
CCCc1cc(OC)c2c(c1)OCO2 [DIHYDROMYRISTICIN]: 128.7
C1CCc2nnnn2CC1: 124.5
CCn1cc(C(=O)O)c(=O)c2cnc(N3CCCC3)nc21: 161.1
CCCCNC(=O)NS(=O)(=O)c1ccc(C)cc1 [TOLBUTAMIDE]: 161.9
O=P1(NCCCl)OCCCN1CCCl (centres undefined) [IFOSFAMIDE]: 147

Query string: Report collision cross section (N2) for O=c1c(O)c(-c2ccc(O)cc2)oc2cc(O)cc(O)c12 please.
Result string: 159.2

Query string: Queued: CC(=O)O[C@]1(C(C)=O)CC[C@H]2[C@@H]3C[C@H](C)C4=CC(=O)CC[C@]4(C)[C@H]3CC[C@@]21C [MEDROXYPROGESTERONE ACETATE]
Result string: 197.2

Query string: # repeat for CC(=O)OCC(=O)[C@H]1CC[C@H]2[C@@H]3CCC4=CC(=O)CC[C@]4(C)[C@H]3CC[C@]12C [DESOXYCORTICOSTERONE ACETATE]
Result string: 193.8

Query string: // next record COc1cc2c(c(OC)c1OC)-c1ccc(OC)c(=O)cc1[C@@H](NC(C)=O)CC2
Result string: 194.5

Query string: // query: COc1ccc2c(=O)c(CC(=O)O)coc2c1 [ANHYDROBRAZILIC ACID]
Result string: 143.1

* * *

Setup Conditions: [M+H]+; instrument: TW; Major Mix IMS/Tof Calibration Kit (Waters)
collision cross section (N2) values by entry
Expressed in Å², but write only the number.

Here are 3 compounds together with their reported answers.
OCc1cc([C@@H](O)CNCCCCCCOCCCCc2ccccc2)ccc1O [Salmeterol]: 202.9
CO[C@]12CC[C@@]3(C[C@@H]1[C@](C)(O)C(C)(C)C)[C@H]1Cc4ccc(O)c5c4[C@@]3(CCN1CC1CC1)[C@H]2O5 [Buprenorphine]: 209.7
CNC(=O)C(CCN1CCC(O)(c2ccc(Cl)cc2)CC1)(c1ccccc1)c1ccccc1 [Loperamide-M Desmethyl]: 218.7

Query string: I would be grateful if you could share the reported collision cross section (N2) for O=C1Cc2cc(CCN3CCN(c4nsc5ccccc45)CC3)c(Cl)cc2N1 [Ziprasidone] .
Result string: 192.6

* * *

Setup Conditions: [M+Na]+; instrument: DT; single field, calibrated with Agilent tune mix (Agilent)
Result Type: collision cross section (N2)
Please answer using the number first and the unit second.

Query string: Reported collision cross section (N2) for OC[C@H]1O[C@H](OC[C@H]2OC(O)[C@H](O)[C@@H](O)[C@@H]2O)[C@H](O)[C@@H](O)[C@@H]1O (some centres undefined) : what is it?
Result string: 177.3 Å²

* * *

In this section, each of the compounds is paired with its reported collision cross section (N2).
Setup Conditions: [M-H]-; instrument: TW; calibrated with phosphatidylcholines (ESI+) and phosphatidylethanolamines (ESI-), doubly charged cardiolipins calibrated with poly-DL-…
Response body: numeric value in Å², unit text excluded.

Below, 5 compounds whose answers are already recorded.
CCCCCCC1CC1CCCCCCCC(=O)OC[C@@H](O)COP(=O)(O)OCC(O)CO (some centres not stated) [LPG(17:1)]: 214.26
CCCCCC/C=C\CCCCCCCC(=O)OC[C@H](COP(=O)(O)OCCNC(=O)CCCCCCCCCCCCCCC)OC(=O)CCCCCCCCCCCCC [AcylPE(46:1)]: 310.12
CCCCCCCCC1CC1CCCCCCCC(=O)O[C@H](CO)COP(=O)([O-])OCC[NH3+] (some centres not stated) [LPE(0:0/19:1)]: 214.39
CCCCCC/C=C\CCCCCCCC(=O)OCC(COP(=O)(O)OCCN)OC(=O)CCCCCCC/C=C\CCCCCCCC (configuration not stated) [PE(34:2)]: 261.72
CCCCCCCCCCCCCCCC(=O)OCC(COP(=O)(O)OCC(O)CO)OC(=O)CCCCCCCCCCCCC (configuration not stated) [PG(30:0)]: 258.02

Query string: Param item = CCCCCC/C=C\CCCCCCCC(=O)OC[C@H](COP(=O)(O)OC[C@@H](O)COC(=O)CCCCCCCCCCCCCCC)OC(=O)CCCCCCCC1CC1CCCCCCCCCC (some centres not stated) [AcylPG(53:2)] ; retrieve measured collision cross section (N2).
Result string: 333.78

Query string: Also need CCCCCCCCCCCCCCCC(=O)OCC(COP(=O)(O)OCCN)OC(=O)CCCCCCCC1CC1CCCCCC (configuration not stated) [PE(33:1)] , thanks.
Result string: 259.91

* * *

Setup Conditions: [M+Na]+; instrument: TW; calibrated with phosphatidylcholines (ESI+) and phosphatidylethanolamines (ESI-)
Result Type: collision cross section (N2) (Å²)
Dear colleague, please return just the value in Å², with no unit written.

// worked examples, collision cross section (N2) included
CCCCC/C=C\C/C=C\C/C=C\C/C=C\CCCC(=O)OC[C@H](COP(=O)(O)OC[C@@H](O)CO)OC(=O)CCCCCCC/C=C\CCCCCC: 277.8
CC/C=C\C/C=C\C/C=C\C/C=C\C/C=C\CCCC(=O)O[C@H](CO/C=C\CCCCCCCCCCCCCCCC)COP(=O)(O)OCCN: 279.4
CCCCC/C=C\C/C=C\CCCCCCCCCCCC(=O)O[C@H](COC(=O)CCCCCCC/C=C\CCCCCC)COP(=O)(O)O[C@H]1C(O)C(O)C(O)[C@@H](O)C1O (stereo partly specified): 298.5
CCCCC/C=C\C/C=C\C/C=C\CCCCCCC(=O)O[C@H](COC(=O)CCCCCCC/C=C\CCCCCC)COP(=O)(O)O[C@H]1C(O)C(O)C(O)[C@@H](O)C1O (stereo partly specified): 290.5
CCCCCCCCCCCCCCCCCCC(=O)OC[C@H](COP(=O)(O)O[C@H]1C(O)C(O)C(O)[C@@H](O)C1O)OC(=O)CCCCCCCCCCCCCCCC (stereo partly specified): 298.6

Query string: Given CCCCCC/C=C\CCCCCCCC(=O)OC[C@H](COP(=O)(O)OC[C@@H](O)CO)OC(=O)CCCCCCCCCCCCCCCCCCC , state its recorded collision cross section (N2).
Result string: 287.5

* * *

Setup Conditions: [M+K]+; instrument: DT; stepped-field
Result Type: collision cross section (N2) (Å²)
Quick note: give the figure in Å², leave out the unit.

Here is how some molecules turned out for collision cross section (N2).
CCC/C=C\C/C=C\CCCCCCCCCC(=O)O[C@H](COC(=O)CCCCCCCCCCCCC)COP(=O)([O-])OCC[N+](C)(C)C [PC(32:2)]: 289.2
CCCCC/C=C\CCCCCCCC(=O)O[C@H](COC(=O)CCCCCCC/C=C\CCCCCC)COP(=O)([O-])OCC[N+](C)(C)C [PC(31:2)]: 283.6
CCCCC=CCC=CCC=CCC(=O)OC[C@H](COP(=O)(O)OCCN)OC(=O)CC=CCC=CCC=CCCCC [PE(28:6)]: 248.7
CCCCC/C=C\C/C=C\C/C=C\CCCCC(=O)OC[C@H](COP(=O)(O)OCCN)OC(=O)CCCCCCC/C=C\CCCCCCCCC [PE(37:4)]: 284.7

Query string: Bench note: what collision cross section (N2) did OCC1OC(OC2C(CO)OC(OC3C(CO)OC(OC4C(CO)OC(O)C(O)C4O)C(O)C3O)C(O)C2O)C(O)C(O)C1O (stereo unspecified) [(Hex)4] show?
Result string: 236.6

Query string: Param item: OC[C@H]1O[C@H](O[C@H]2[C@H](O)[C@@H](O)[C@@H](O[C@H]3[C@H](O)[C@@H](O)[C@@H](O)O[C@@H]3CO)O[C@@H]2CO)[C@H](O)[C@@H](O)[C@@H]1O [Maltotriose]
Result string: 216.8

* * *

Setup Conditions: [M+K]+; instrument: DT; single field, calibrated with ESI Low Concentration Tuning Mix (Agilent)
Result Type: collision cross section (N2)

Worked cases, collision cross section (N2) given:
OC[C@H]1O[C@@H](O[C@H]2[C@H](O)[C@@H](O)[C@H](O)O[C@@H]2CO)[C@H](O)[C@@H](O)[C@H]1O [LACTOSE]: 178.6 Å²
Cc1ncc(CO)c(C(=O)O)c1O [4-PYRIDOXATE]: 147.4 Å²
C[C@@H]1NC(=O)N[C@@H]1CCCCCC(=O)O [DETHIOBIOTIN]: 155.8 Å²
O=c1[nH]c(=O)c2ncn([C@@H]3O[C@H](CO)[C@@H](O)[C@H]3O)c2[nH]1 [XANTHOSINE]: 173 Å²

// next item, collision cross section (N2) requested
Query string: Requested field: collision cross section (N2). Item: C[C@H](CCC(=O)NCC(=O)O)[C@H]1CC[C@H]2[C@@H]3[C@H](O)C[C@@H]4C[C@H](O)CC[C@]4(C)[C@H]3C[C@H](O)[C@]12C [GLYCOCHOLATE]
Result string: 208 Å²
